Attribute: Ratio Ki
# Tested on: HEK293
# Experiment: Selectivity ratio of Ki for human 5-HT1A receptor expressed in HEK293 cells to Ki for human 5-HT7 receptor expressed in HEK293 cells
# Format: cell-based

{"columns": ["Structure string", "Measured target", "Measurement name", "Value reported"],
 "data": [
  ["COc1ccccc1N1CCN(Cc2ccc(C(=O)N3CCC[C@H]3C(N)=O)cc2)CC1", "HEK293", "Ratio Ki", 2],
  ["NC(=O)[C@@H]1Cc2ccccc2CN1C(=O)CCCCCN1CCN(c2ccccc2Cl)CC1", "HEK293", "Ratio Ki", "< 1"],
  ["CSc1ccccc1N1CCN(Cc2ccc(C(=O)N3CCC[C@H]3C(N)=O)cc2)CC1", "HEK293", "Ratio Ki", "< 1"],
  ["NC(=O)[C@@H]1CCCN1C(=O)CCCCCN1CCN(c2noc3ccccc23)CC1", "HEK293", "Ratio Ki", 4]
]}

Query compound follows.
For the compound NC(=O)[C@@H]1Cc2ccccc2CN1C(=O)CCCCN1CCN(c2ccc(F)cc2)CC1 , what Ratio Ki is on record?
6

---

# Measured target: 5-hydroxytryptamine receptor 1A (Homo sapiens, UniProt P08908)
# Sequence (P08908 whole entry): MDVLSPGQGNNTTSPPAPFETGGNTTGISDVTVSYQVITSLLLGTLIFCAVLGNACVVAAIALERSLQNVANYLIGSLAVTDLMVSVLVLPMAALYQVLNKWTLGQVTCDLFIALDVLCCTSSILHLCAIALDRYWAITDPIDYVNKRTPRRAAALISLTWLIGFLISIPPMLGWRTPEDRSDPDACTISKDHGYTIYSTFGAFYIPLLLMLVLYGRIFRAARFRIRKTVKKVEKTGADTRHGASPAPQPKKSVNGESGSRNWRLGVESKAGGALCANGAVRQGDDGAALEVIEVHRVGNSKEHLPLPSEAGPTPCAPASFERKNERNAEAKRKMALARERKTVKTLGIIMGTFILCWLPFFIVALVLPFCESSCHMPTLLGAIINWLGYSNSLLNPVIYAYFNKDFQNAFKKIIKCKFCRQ
Doc: threshold 40 nM (exclusive). Items with Ki beneath it return Y; others return N.

These recorded examples may help you get a feel for the data.
{"columns": ["Structure string", "Assigned category"],
 "data": [
  ["NC(=O)[C@@H]1Cc2ccccc2CN1C(=O)c1ccc(CN2CCN(c3cccc(Cl)c3Cl)CC2)cc1", "N"],
  ["COc1ccccc1N1CCN(CCCCC(=O)N2Cc3ccccc3C[C@H]2C(N)=O)CC1", "N"],
  ["NC(=O)[C@@H]1CCCN1C(=O)CCCCCN1CCN(c2cccc(Cl)c2)CC1", "Y"],
  ["CSc1ccccc1N1CCN(CCCCC(=O)N2Cc3ccccc3C[C@H]2C(N)=O)CC1", "Y"],
  ["CSc1ccccc1N1CCN(Cc2ccc(C(=O)N3Cc4ccccc4C[C@H]3C(N)=O)cc2)CC1", "N"]
]}

Dear colleague, could you confirm whether Ki of NC(=O)[C@@H]1CCCN1C(=O)CCCCCN1CCN(c2cccc(Cl)c2Cl)CC1 falls below 40 nM? Thanks.
Y

Can you check CSc1ccccc1N1CCN(CCCCCC(=O)N2CCC[C@H]2C(N)=O)CC1 next?
Y

Can you check COc1ccccc1N1CCN(Cc2ccc(C(=O)N3Cc4ccccc4C[C@H]3C(N)=O)cc2)CC1 next?
N

Entry source: ChEMBL document CHEMBL3232956
